target: BRD4 BD2 (Homo sapiens, UniProt O60885, Y97A); construct: BRD4 (1-477) (Y97A) and (Y390A); made in house; host or cells: E. coli (pET15b vector); experiment: BRD4 BD2 mutant TR-FRET competition assay; assay type: binding; settings: read-out: pIC50 in the BRD4 BD2 assay (converted)
Structures can show the parent of a compound that is named as a salt.
OBSERVED_PROPERTY: IC50

1) CNC(=O)c1cc(C(=O)NCCCC2CCNCC2)cn(Cc2ccccc2)c1=O :: ≤ 100 nM
2) CNC(=O)c1cc(C(=O)NCCCC2CCNCC2)cn([C@H](C)c2ccccc2)c1=O :: ≤ 100 nM
3) CNC(=O)c1cc(C(=O)NCCCC2CCNCC2)cn(Cc2cccc(OCCO)c2)c1=O :: ≤ 100 nM
4) CNC(=O)c1cc(C(=O)NCCCN2CCNCC2)cn(Cc2ccccc2)c1=O [Example 12, hydrochloride] :: ≤ 100 nM
5) CNC(=O)c1cc(C(=O)NCCCC2CCNCC2)cn(Cc2cccc(OC)c2)c1=O :: ≤ 100 nM

Now for the compound whose IC50 we want.
The observed IC50 for `CNC(=O)c1cc(C(=O)NCC2CCS(=O)(=O)CC2)cn(Cc2ccccc2)c1=O` when tested with BRD4 BD2 (Homo sapiens, UniProt O60885, Y97A) stands at 1000 to 100000 nM
